- Study target: human PKCθ full length enzyme (Homo sapiens, UniProt Q04759)
- Construct: human PKCθ full length enzyme (Panvera Catalog No. P2996); purchased Panvera P2996
- Sequence (Q04759 whole entry): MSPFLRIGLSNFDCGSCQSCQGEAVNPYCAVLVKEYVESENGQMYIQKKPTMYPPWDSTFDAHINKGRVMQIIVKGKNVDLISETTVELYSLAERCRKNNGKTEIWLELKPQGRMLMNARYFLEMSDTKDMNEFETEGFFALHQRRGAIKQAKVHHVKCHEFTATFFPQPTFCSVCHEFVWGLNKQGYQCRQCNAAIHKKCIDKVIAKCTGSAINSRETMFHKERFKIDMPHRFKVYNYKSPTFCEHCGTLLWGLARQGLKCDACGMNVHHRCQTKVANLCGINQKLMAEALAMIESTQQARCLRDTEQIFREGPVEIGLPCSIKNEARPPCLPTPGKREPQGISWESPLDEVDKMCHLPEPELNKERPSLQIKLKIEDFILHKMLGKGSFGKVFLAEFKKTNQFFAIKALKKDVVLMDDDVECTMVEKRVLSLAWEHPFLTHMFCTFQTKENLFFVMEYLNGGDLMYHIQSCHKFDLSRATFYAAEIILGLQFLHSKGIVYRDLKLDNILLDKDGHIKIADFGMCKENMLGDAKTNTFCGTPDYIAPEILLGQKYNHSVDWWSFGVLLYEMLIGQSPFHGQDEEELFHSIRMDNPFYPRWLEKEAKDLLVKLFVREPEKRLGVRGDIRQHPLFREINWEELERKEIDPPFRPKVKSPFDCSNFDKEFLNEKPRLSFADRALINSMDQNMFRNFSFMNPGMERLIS
- Assay remarks: PKCθ IMAP Assay
- Assay type: biochemical
- Details: average value when one or more samples were tested; ATP 6 uM, PKCθ 1 nM
- Source text: The materials used include the following: human PKCθ full length enzyme (Panvera Catalog No. P2996); substrate peptide: 5FAM-[…]-OH (Molecular Devices, RP7032); ATP (Sigma Cat # A2383); DTT (Pierce, 20291); 5× kinase reaction buffer (Molecular Devices, R7209); 5× binding buffer A (Molecular Devices, R7282), 5× binding buffer B (Molecular Devices, R7209); IMAP Beads (Molecular Devices, R7284); and 384-well plates (Corning Costar, 3710). […]
Property name: IC50 (nM)

[[record]]
line_notation = "CN(C)Cc1cc(-c2cc3c(Nc4ccc5[nH]ccc5c4)c(C#N)cnc3s2)cs1"
property_name = "IC50"
uom = "nM"
meas_value = 37

[[record]]
line_notation = "Cc1c(Nc2c(C#N)cnc3sc(-c4ccc5ccccc5c4)cc23)ccc2[nH]ccc12"
property_name = "IC50"
uom = "nM"
meas_value = 72

[[record]]
line_notation = "Cc1c(Nc2c(C#N)cnc3sc(-c4ccc(C(=O)NCCN(C)C)cc4)cc23)ccc2[nH]ccc12"
property_name = "IC50"
uom = "nM"
meas_value = 16

[[record]]
line_notation = "Cc1c(Nc2c(C#N)cnc3sc(-c4cccc(OC[C@@H](C)O)c4)cc23)ccc2[nH]ccc12"
property_name = "IC50"
uom = "nM"
meas_value = 93

[[record]]
line_notation = "Cc1c(Nc2c(C#N)cnc3sc(/C=C/CCN4CCN(C)CC4)cc23)ccc2[nH]ccc12"
property_name = "IC50"
uom = "nM"
meas_value = 45

[[record]]
line_notation = "Cc1c(Nc2c(C#N)cnc3sc(-c4nccn4C)cc23)ccc2[nH]ccc12"
property_name = "IC50"
uom = "nM"
meas_value = 49


(P) N#Cc1cnc2sc(-c3csc(CN4CC[C@H](O)C4)c3)cc2c1Nc1ccc2[nH]ccc2c1
(Q) Cc1c(Nc2c(C#N)cnc3sc(-c4ccc(OCCCl)cc4)cc23)ccc2[nH]ccc12
(R) Cc1c(Nc2c(C#N)cnc3sc(-c4cc(C(=O)N(C)C)ccc4F)cc23)ccc2[nH]ccc12
(S) Cc1c(Nc2c(C#N)cnc3sc(-c4cncnc4)cc23)ccc2[nH]ccc12
(T) CN(C)Cc1ccccc1-c1cc2c(Nc3ccc4[nH]ccc4c3)c(C#N)cnc2s1
*Q* // ranking: key=IC50, reverse=True Respond with the label ranking, as requested.
*A* T, Q, R, P, S
(T: 570 nM, Q: 120 nM, R: 66 nM, P: 44 nM, S: 17 nM)

###

Measured melting point accompanies every entry in the list below.
Structures can show the parent of a compound that is named as a salt.

Solved cases below.
[[record]]
compound = "N#Cc1cnc2sc(/C=C/C(=O)O)cc2c1Nc1ccc2[nH]ccc2c1"
meas_value = "230 °C (dec.)"

[[record]]
compound = "N#Cc1cnc2sc(I)cc2c1Nc1cccc2cc[nH]c12"
meas_value = "> 245 °C"

[[record]]
compound = "Cc1c(Nc2c(C#N)cnc3sc(/C=C/CN4CCOCC4)cc23)ccc2[nH]ccc12 (as salt: HCl)"
meas_value = "230 °C (dec.)"


Entry N#Cc1cnc2sc(-c3ccc(C=O)cc3)cc2c1Nc1ccc2[nH]ccc2c1 ; melting point = > 260 °C

Entry N#Cc1cnc2sc(C(=O)O)cc2c1Nc1ccc2[nH]ccc2c1 ; melting point = > 250 °C

Entry Cc1c(Nc2c(C#N)cnc3sc(/C=C/C(=O)O)cc23)ccc2[nH]ccc12 ; melting point = > 350 °C

Entry Cc1c(Nc2c(C#N)cnc3sc(C#Cc4ccc(CN(C)C)s4)cc23)ccc2[nH]ccc12 ; melting point = 185 to 187 °C

Entry COC(=O)c1cc2c(Nc3ccc4[nH]ccc4c3C)c(C#N)cnc2s1 ; melting point = 255 °C

Entry Cc1c(Nc2c(C#N)cnc3sc(C#Cc4cc(CN(C)C)ccn4)cc23)ccc2[nH]ccc12 ; melting point = > 250 °C

Entry CN1CCN(Cc2cccc(-c3cc4c(Nc5cccc6[nH]ccc56)c(C#N)cnc4s3)c2)CC1 ; melting point = > 245 °C

Entry Cc1c(Nc2c(C#N)cnc3sc(C(=O)N4CCCC4)cc23)ccc2[nH]ccc12 ; melting point = 256 °C

Entry Cc1c(Nc2c(C#N)cnc3sc(C#Cc4ccc(N(C)C)nc4)cc23)ccc2[nH]ccc12 ; melting point = > 260 °C

Entry N#Cc1cnc2sc(-c3ccccc3)cc2c1NCCc1c[nH]cn1 ; melting point = > 245 °C

Entry Cc1c(Nc2c(C#N)cnc3sc(C#Cc4ccc(CN(C)C)nc4)cc23)ccc2[nH]ccc12 ; melting point = 230 to 232 °C

Entry CCOC(=O)CCc1cc2c(Nc3ccc4[nH]ccc4c3)c(C#N)cnc2s1 ; melting point = 202 °C

Entry CN1CCN(CCC#Cc2csc3ncc(C#N)c(Nc4ccc5[nH]ccc5c4)c23)CC1 ; melting point = 184 to 186 °C

Entry N#Cc1cnc2sc(-c3ccccc3)cc2c1Nc1cccc2[nH]ccc12 ; melting point = > 245 °C

Entry Cc1c(Nc2c(C#N)cnc3sc(C#Cc4ccc(CN(C)C)o4)cc23)ccc2[nH]ccc12 ; melting point = 218 to 220 °C

Entry Cc1c(Nc2c(C#N)cnc3sc(C#Cc4cncc(CN(C)C)c4)cc23)ccc2[nH]ccc12 ; melting point = 130 °C (dec.)

Entry CCOC(=O)/C=C/c1cc2c(Nc3ccc4[nH]ccc4c3)c(C#N)cnc2s1 ; melting point = 226 °C

Entry N#Cc1cnc2sc(CCC(=O)O)cc2c1Nc1ccc2[nH]ccc2c1 ; melting point = 255 °C

Entry N#Cc1cnc2sc(Cl)cc2c1Nc1ccc2[nH]ccc2c1 ; melting point = 228 °C

Entry Cc1c(Nc2c(C#N)cnc3scc(C)c23)ccc2[nH]ccc12 ; melting point = 261 °C

Entry CN1CCN(CCC#Cc2cc3c(Nc4ccc5[nH]ccc5c4)c(C#N)cnc3s2)CC1 ; melting point = 195 to 197 °C

Entry Cc1c(Nc2c(C#N)cnc3sc(C#Cc4cncc(C(=O)N(C)C)c4)cc23)ccc2[nH]ccc12 ; melting point = > 260 °C

Entry N#Cc1cnc2sc(-c3ccccc3)cc2c1NCc1ccc2[nH]ccc2c1 ; melting point = 219 to 221 °C

###

Entries with reported pIC50 on human PKCθ full length enzyme (Homo sapiens, UniProt Q04759)
pIC50: −log10 of the molar value.
Property name: pIC50

[[record]]
compound = "Cc1c(Nc2c(C#N)cnc3sc(C4CCN(Cc5ccccc5)C4)cc23)ccc2[nH]ccc12 (stereo not drawn)"
study_target = "human PKCθ full length enzyme (Homo sapiens, UniProt Q04759)"
meas_value = 5.71

[[record]]
compound = "Cc1c(Nc2c(C#N)cnc3sc(-c4ccc(OCCCN(C)C)nc4)cc23)ccc2[nH]ccc12"
study_target = "human PKCθ full length enzyme (Homo sapiens, UniProt Q04759)"
meas_value = 7.47

[[record]]
compound = "Cc1c(Nc2c(C#N)cnc3sc(-c4ccc(S(=O)(=O)NCCO)cc4)c(C)c23)ccc2[nH]ccc12"
study_target = "human PKCθ full length enzyme (Homo sapiens, UniProt Q04759)"
meas_value = 6.96


(1) Cc1c(Nc2c(C#N)cnc3sc(-c4cccc(CN(C)C)c4)cc23)ccc2[nH]ccc12
(2) N#Cc1cnc2sc(/C=C/c3ccc(C(F)(F)F)cc3)cc2c1Nc1ccc2[nH]ccc2c1
*Q* Between the entries labelled 1 and 2 , which has a larger pIC50 value on record? Answer = label.
*A* 1
(1: 8.10, 2: 4.63)

###

Entries with reported IC50 on human PKCθ full length enzyme (Homo sapiens, UniProt Q04759)
Property name: IC50 (nM)

(I) Cc1c(Nc2c(C#N)cnc3sc(/C=C/C(N)=O)cc23)ccc2[nH]ccc12
(II) N#Cc1cnc2sc(-c3cccc(CN4CCCC4)c3)cc2c1Nc1ccc2[nH]ccc2c1
(III) Cc1c(Nc2c(C#N)cnc3sc(C#Cc4ccc(N(C)C)nc4)cc23)ccc2[nH]ccc12
*Q* Arrange items by their IC50 values in increasing order. Respond with the label ranking, as requested.
*A* I, II, III

###

- Study target: PKCθ (Homo sapiens)
Property name: IC50 (µM)

Solved cases below.
[[record]]
line_notation = "N#Cc1cnc2sc(-c3cccc(CN(CCO)CCO)c3)cc2c1Nc1ccc2[nH]ccc2c1"
property_name = "IC50"
meas_value = 0.088

[[record]]
line_notation = "N#Cc1cnc2sc(-c3ccccc3)cc2c1Nc1cccc2[nH]ccc12"
property_name = "IC50"
meas_value = 0.12

[[record]]
line_notation = "CN1CCN(Cc2ccc(-c3cc4c(Nc5ccc6[nH]ccc6c5)c(C#N)cnc4s3)cc2)CC1"
property_name = "IC50"
meas_value = 0.28

[[record]]
line_notation = "CN(C)Cc1ccc(-c2cc3c(Nc4ccc5[nH]ccc5c4)c(C#N)cnc3s2)cc1"
property_name = "IC50"
meas_value = 0.077


(I) N#Cc1cnc2sc(C#Cc3cccnc3)cc2c1Nc1ccc2[nH]ccc2c1
(II) CN1CCN(Cc2cccc(-c3cc4c(Nc5ccc6[nH]ccc6c5)c(C#N)cnc4s3)c2)CC1
(III) CCN(CC)CC#Cc1cc2c(Nc3ccc4[nH]ccc4c3)c(C#N)cnc2s1
(IV) N#Cc1cnc2sc(-c3ccc(N4CCOCC4)cc3)cc2c1Nc1ccc2[nH]ccc2c1
(V) Cc1c(Nc2c(C#N)cnc3sc(-c4cccc(CN(C)C)c4)cc23)ccc2[nH]ccc12
*Q* // ranking: key=IC50, reverse=True Respond with the label ranking, as requested.
*A* IV, III, II, I, V
(IV: 2.1 µM, III: 0.22 µM, II: 0.09 µM, I: 0.016 µM, V: 0.0045 µM)

Where do the numbers come from? From patent US20070082880A1.
